- particulars: 318.15 K; 101.33 kPa; Liquid; Vibrating tube method
measuredAttribute: mass density (kg/m3)

Cc1ccc(O)cc1 [4-methylphenol]; 1014.66
COc1ccccc1O [2-methoxyphenol]; 1109.51
Oc1ccccc1 [phenol]; 1054.1
C=CCc1ccc(O)c(OC)c1 [2-hydroxy-5-allylanisole]; 1044.35
COC(=O)c1ccccc1O [methyl 2-hydroxybenzoate]; 1159.4
Cc1cccc(O)c1 [3-methylphenol]; 1013.99
Cc1ccccc1O [2-methylphenol]; 1023.83

----------
- particulars: 338.15 K; 101.33 kPa; Liquid; Vibrating tube method
measuredAttribute: mass density (kg/m3)

Cc1ccccc1O; 1005.97
Cc1cccc(O)c1; 997.743
C=CCc1ccc(O)c(OC)c1 [2-hydroxy-5-allylanisole]; 1026.6
COC(=O)c1ccccc1O [methyl 2-hydroxybenzoate]; 1139.47
Oc1ccccc1; 1036.79
COc1ccccc1O; 1089.94
Cc1ccc(O)cc1; 998.659

----------
- particulars: 338.15 K; 101.33 kPa; Liquid; Pulse-echo method
measuredAttribute: speed of sound (m/s)

Cc1ccc(O)cc1; 1361.8
COc1ccccc1O; 1375.8
Cc1cccc(O)c1; 1357.3
Oc1ccccc1; 1376.1
Cc1ccccc1O; 1365.3
COC(=O)c1ccccc1O [methyl 2-hydroxybenzoate]; 1268.1
C=CCc1ccc(O)c(OC)c1 [2-hydroxy-5-allylanisole]; 1335.2

----------
- particulars: 313.15 K; 101.33 kPa; Liquid; Pulse-echo method
measuredAttribute: speed of sound (m/s)

COc1ccccc1O; 1470.7
Cc1cccc(O)c1; 1435
C=CCc1ccc(O)c(OC)c1 [2-hydroxy-5-allylanisole]; 1424.1
COC(=O)c1ccccc1O [methyl 2-hydroxybenzoate]; 1356
Cc1ccc(O)cc1; 1440
Cc1ccccc1O; 1452.7

----------
- particulars: 333.15 K; 101.33 kPa; Liquid; Vibrating tube method
measuredAttribute: mass density (kg/m3)

Oc1ccccc1; 1041.16
Cc1cccc(O)c1; 1001.84
Cc1ccc(O)cc1; 1002.7
COC(=O)c1ccccc1O [methyl 2-hydroxybenzoate]; 1144.46
COc1ccccc1O; 1094.84
Cc1ccccc1O; 1010.46
C=CCc1ccc(O)c(OC)c1 [2-hydroxy-5-allylanisole]; 1031.04

----------
- particulars: 313.15 K; 101.33 kPa; Liquid; Vibrating tube method
measuredAttribute: mass density (kg/m3)

Cc1ccccc1O; 1028.25
Cc1ccc(O)cc1; 1018.59
COc1ccccc1O; 1114.38
C=CCc1ccc(O)c(OC)c1 [2-hydroxy-5-allylanisole]; 1048.78
Cc1cccc(O)c1; 1018
COC(=O)c1ccccc1O [methyl 2-hydroxybenzoate]; 1164.38

----------
- particulars: 293.15 K; 101.33 kPa; Liquid; Pulse-echo method
measuredAttribute: speed of sound (m/s)

COc1ccccc1O; 1548.3
Cc1ccccc1O; 1522.6
Cc1cccc(O)c1; 1497.9
COC(=O)c1ccccc1O [methyl 2-hydroxybenzoate]; 1429.1
C=CCc1ccc(O)c(OC)c1 [2-hydroxy-5-allylanisole]; 1497
Cc1ccc(O)cc1; 1502.9

----------
- particulars: 328.15 K; 101.33 kPa; Liquid; Pulse-echo method
measuredAttribute: speed of sound (m/s)

COc1ccccc1O; 1413.5
C=CCc1ccc(O)c(OC)c1 [2-hydroxy-5-allylanisole]; 1370.5
Cc1ccc(O)cc1; 1393
COC(=O)c1ccccc1O [methyl 2-hydroxybenzoate]; 1302.8
Cc1cccc(O)c1; 1388.4
Cc1ccccc1O; 1400.2
Oc1ccccc1; 1406.8

----------
- particulars: 318.15 K; 101.33 kPa; Liquid; Pulse-echo method
measuredAttribute: speed of sound (m/s)

Cc1ccc(O)cc1; 1424.3
Cc1ccccc1O; 1435.2
Oc1ccccc1; 1437.2
Cc1cccc(O)c1; 1419.5
COC(=O)c1ccccc1O [methyl 2-hydroxybenzoate]; 1338.1
COc1ccccc1O; 1451.5
C=CCc1ccc(O)c(OC)c1 [2-hydroxy-5-allylanisole]; 1406.1

----------
- particulars: 303.15 K; 101.33 kPa; Liquid; Vibrating tube method
measuredAttribute: mass density (kg/m3)

Cc1ccc(O)cc1; 1026.39
Cc1ccccc1O; 1037.05
Cc1cccc(O)c1; 1025.96
COc1ccccc1O; 1124.11
C=CCc1ccc(O)c(OC)c1 [2-hydroxy-5-allylanisole]; 1057.64
COC(=O)c1ccccc1O [methyl 2-hydroxybenzoate]; 1174.35

----------
- particulars: 308.15 K; 101.33 kPa; Liquid; Pulse-echo method
measuredAttribute: speed of sound (m/s)

Cc1cccc(O)c1; 1450.5
Cc1ccccc1O; 1470.2
C=CCc1ccc(O)c(OC)c1 [2-hydroxy-5-allylanisole]; 1442.2
COC(=O)c1ccccc1O [methyl 2-hydroxybenzoate]; 1374
COc1ccccc1O; 1490
Cc1ccc(O)cc1; 1455.6
